Collected Max MFI values appear next to each entry.
Biological target: T1, human CDH6 with EC3 removed, on HEK293T cells (HEK293T-hCDH6-EC3 deletion) (human, UniProt P55285 54-790)
T1 construct: Signal peptide not removed here
T1 sequence: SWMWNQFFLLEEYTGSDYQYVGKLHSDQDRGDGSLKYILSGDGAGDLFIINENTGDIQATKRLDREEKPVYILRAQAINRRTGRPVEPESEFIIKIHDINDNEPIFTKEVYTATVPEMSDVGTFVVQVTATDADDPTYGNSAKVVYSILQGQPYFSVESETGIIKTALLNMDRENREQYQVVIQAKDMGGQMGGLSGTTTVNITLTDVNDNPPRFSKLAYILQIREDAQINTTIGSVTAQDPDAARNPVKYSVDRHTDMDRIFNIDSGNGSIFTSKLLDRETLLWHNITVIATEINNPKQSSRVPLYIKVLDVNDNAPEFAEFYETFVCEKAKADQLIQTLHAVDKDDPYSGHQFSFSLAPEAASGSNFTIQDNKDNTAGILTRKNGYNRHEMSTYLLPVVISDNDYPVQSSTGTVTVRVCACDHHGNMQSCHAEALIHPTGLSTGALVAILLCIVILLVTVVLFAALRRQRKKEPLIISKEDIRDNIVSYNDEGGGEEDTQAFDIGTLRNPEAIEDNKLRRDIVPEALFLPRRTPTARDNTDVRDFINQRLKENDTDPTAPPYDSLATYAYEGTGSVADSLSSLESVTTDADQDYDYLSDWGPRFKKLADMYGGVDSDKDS
Experiment: FACS, HEK293T-hCDH6-EC3 deletion cells

binder	Max MFI [MFI]
CHI-CDH6-1 (antibody, human IgG1, kappa, V domains shown, also called CHI-hCDH6-1; CH1-CDH6-1) VH: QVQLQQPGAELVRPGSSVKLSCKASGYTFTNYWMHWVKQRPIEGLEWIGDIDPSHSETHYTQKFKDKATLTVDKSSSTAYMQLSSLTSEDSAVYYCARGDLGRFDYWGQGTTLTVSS VL: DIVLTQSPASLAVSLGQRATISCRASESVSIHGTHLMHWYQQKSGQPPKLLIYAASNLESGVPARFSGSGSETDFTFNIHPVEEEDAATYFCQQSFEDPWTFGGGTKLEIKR	18000
CHI-CDH6-4 (antibody, human IgG1, kappa, V domains shown, also called CH1-CDH6-4; chimeric antibody of murine CDH6-4) VH: QVQLQQSGPELVKPGASVKISCKASGYAFSNFWMNWVKQRPGKGLEWIGWIYPGDGDTNYNGKFKDKATLTADKSSSTAYIQLSSLTSEDSAVYFCARLYDAWGFFDYWGQGTTLTVSS VL: QIVLTQSPAIMSASPGQKVTITCSASSSVNYMHWYQQKLGSSPKLWIYDKSKLAPGVPARFSGSGSGTSYSLTISSMEAEDAASYFCHQWSSYPPMTFGGGTKLEIKR	15100
